test system: C. albicans; experiment: MIC90 microdilution (EUCAST), C. albicans; format: cell-based; conditions: Candida albicans, 24 h
readout label: MIC90

COc1cc2c(cc1OC)CN(C1CCN(Cc3ccccc3)CC1)CC2; > 32 µg/mL
CCCCCCCCN1CCC(N2CCC3CCCCC3C2)CC1 (racemic); > 32 µg/mL

Now for the compound whose MIC90 we want.
Q. Form entry - test system: C. albicans; read-out: MIC90; compound: COc1cc2c(cc1OC)CN(C1CCN(CCC(C)CCC=C(C)C)CC1)CC2 (racemic)
A. > 32 µg/mL
